Where these numbers come from: ChEMBL document CHEMBL5291721

// reported AC50 per item
Molecular target: Muscarinic acetylcholine receptor M2 (Homo sapiens, UniProt P08172); also: assay procedure not described here
Sequence (P08172 whole entry): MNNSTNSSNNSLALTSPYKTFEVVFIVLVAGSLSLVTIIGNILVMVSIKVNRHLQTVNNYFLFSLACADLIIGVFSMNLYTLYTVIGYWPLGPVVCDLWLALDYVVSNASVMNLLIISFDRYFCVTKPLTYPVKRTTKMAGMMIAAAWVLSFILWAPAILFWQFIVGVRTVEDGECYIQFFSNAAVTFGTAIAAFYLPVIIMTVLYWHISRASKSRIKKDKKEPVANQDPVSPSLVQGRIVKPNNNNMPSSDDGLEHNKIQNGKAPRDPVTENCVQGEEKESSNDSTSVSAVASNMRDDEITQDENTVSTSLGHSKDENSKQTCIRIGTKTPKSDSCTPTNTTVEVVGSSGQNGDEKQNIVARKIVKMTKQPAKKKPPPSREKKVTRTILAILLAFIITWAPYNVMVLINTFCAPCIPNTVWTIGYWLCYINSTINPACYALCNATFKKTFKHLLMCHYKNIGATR
Type: functional, cell-based

Cc1nc2ccc(CN(C)c3ccc(C(=O)N[C@@H](CCC(=O)O)C(=O)O)s3)cc2c(=O)[nH]1 :: > 30 µM

-- ask Query: AC50; subject: Cc1cccc(C)c1OCC(C)N (stereo not given)
-- reply > 30 µM

-- ask Query: AC50; subject: Nc1ncnc2c1ncn2[C@@H]1O[C@H](COP(=O)(O)O)[C@@H](O)[C@H]1O [ADENOSINE PHOSPHATE]
-- reply > 30 µM

-- ask Query: AC50; subject: `O=P(O)(O)C(O)(Cc1cccnc1)P(=O)(O)O`
-- reply > 30 µM

-- ask Query: AC50; subject: CC(C(=O)O)c1ccc(C(=O)c2cccs2)cc1 (stereo not given)
-- reply > 10 µM

-- ask Query: AC50; subject: CC(Cc1ccccc1)NCCC(c1ccccc1)c1ccccc1 (stereo not given)
-- reply > 10 µM

-- ask Query: AC50; subject: O=C1CCC(N2C(=O)c3ccccc3C2=O)C(=O)N1 (stereo not given) [THALIDOMIDE]
-- reply > 10 µM

-- ask Query: AC50; subject: `COc1ccc2c(c1)c(CC(=O)OCC(=O)O)c(C)n2C(=O)c1ccc(Cl)cc1`
-- reply > 30 µM

----------
The reader will find AC50 measurements below, all made with Vasopressin V2 receptor (Homo sapiens, UniProt P30518).
Sequence (P30518 whole entry): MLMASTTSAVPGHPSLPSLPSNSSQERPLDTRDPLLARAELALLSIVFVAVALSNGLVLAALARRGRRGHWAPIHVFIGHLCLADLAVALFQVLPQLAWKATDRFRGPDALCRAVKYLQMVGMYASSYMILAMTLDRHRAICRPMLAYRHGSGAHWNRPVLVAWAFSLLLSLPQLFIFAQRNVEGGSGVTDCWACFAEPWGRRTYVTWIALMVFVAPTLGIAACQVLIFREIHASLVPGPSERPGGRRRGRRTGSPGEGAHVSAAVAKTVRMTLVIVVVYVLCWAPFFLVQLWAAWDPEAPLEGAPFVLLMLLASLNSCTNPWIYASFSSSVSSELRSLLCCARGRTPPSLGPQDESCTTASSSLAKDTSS

Some solved cases for reference:
COC(=O)C1=C(C)NC(C)=C(C(=O)OCC(C)C)C1c1ccccc1[N+](=O)[O-] (stereo unspecified) [NISOLDIPINE] :: > 10 µM
CN1CCC2=C(C1)C(c1ccccc1)c1ccccc12 (stereo unspecified) [PHENINDAMINE] :: > 10 µM

-- ask Query: AC50; subject: O=C(O)Cc1cn(-c2ccccc2)nc1-c1ccc(Cl)cc1 [LONAZOLAC]
-- reply > 30 µM

-- ask Query: AC50; subject: CCCCCCC(C)(C)c1cc(O)c2c(c1)OC(C)(C)C1CCC(=O)CC21 (stereo unspecified) [NABILONE]
-- reply > 30 µM

-- ask Query: AC50; subject: Nc1ncnc2c1ncn2[C@@H]1O[C@H](COP(=O)(O)O)[C@@H](O)[C@H]1O [ADENOSINE PHOSPHATE]
-- reply > 30 µM

-- ask Query: AC50; subject: CC(C)(Oc1ccc(C2CC2(Cl)Cl)cc1)C(=O)O (stereo unspecified) [CIPROFIBRATE]
-- reply > 30 µM

-- ask Query: AC50; subject: CN(C)C(=O)OC1N=C(c2ccccc2)c2cc(Cl)ccc2N(C)C1=O (stereo unspecified) [CAMAZEPAM]
-- reply > 30 µM

-- ask Query: AC50; subject: CC(Cc1ccccc1)NCCC(c1ccccc1)c1ccccc1 (stereo unspecified) [PRENYLAMINE]
-- reply > 30 µM

-- ask Query: AC50; subject: CN(CCCN1c2ccccc2CCc2ccccc21)CC(=O)c1ccc(Cl)cc1 [LOFEPRAMINE]
-- reply > 30 µM

-- ask Query: AC50; subject: NS(=O)(=O)c1cc2c(cc1Cl)NCNS2(=O)=O [HYDROCHLOROTHIAZIDE]
-- reply > 30 µM

-- ask Query: AC50; subject: CCCCCOC(=O)Nc1nc(=O)n([C@@H]2O[C@H](C)[C@@H](O)[C@H]2O)cc1F [CAPECITABINE]
-- reply > 30 µM

-- ask Query: AC50; subject: O=C1CN=C(c2ccccc2)c2cc(Cl)ccc2N1CC(F)(F)F [HALAZEPAM]
-- reply > 30 µM

-- ask Query: AC50; subject: CC(C(=O)O)c1ccc(C(=O)c2cccs2)cc1 (stereo unspecified) [SUPROFEN]
-- reply > 10 µM

-- ask Query: AC50; subject: CS(=O)(=O)c1ccc([C@@H](O)[C@@H](CO)NC(=O)C(Cl)Cl)cc1 [THIAMPHENICOL]
-- reply > 30 µM

-- ask Query: AC50; subject: O=C(Cn1ccnc1[N+](=O)[O-])NCc1ccccc1 [BENZNIDAZOLE]
-- reply > 30 µM

-- ask Query: AC50; subject: CC/C=C\C/C=C\C/C=C\CCCCCCCC(=O)O [LINOLENIC ACID]
-- reply > 30 µM

-- ask Query: AC50; subject: CC(C)NCC(O)COc1ccc(COCCOC(C)C)cc1 (stereo unspecified) [BISOPROLOL]
-- reply > 30 µM

-- ask Query: AC50; subject: C[C@@H]1O[C@@H]1P(=O)(O)O [FOSFOMYCIN]
-- reply > 10 µM
